Reference source for all entries: patent US9540323B2

Item-by-item account of IC50
# Test system: human platelet rich plasma (PRP)
# protocol text: ADP induced platelet aggregation assay
# condition: Homo sapiens, Platelet, 5 min, read-out: PA IC50 (μM) @ 10 μM ADP, human PRP, 10 μM ADP, AUC at 5 minute
Where a name gives a salt, the structure may show the parent alone.
readout label: IC50 (µM)

> print(dat)
                                    compound  value.operator  meas.value
 1  CC1(C)CN(c2ccccc2NC(=O)Nc2ccc(OC(F)(F)F)cc2)c2c(O)ccc(-c3ccnc(F)c3)c21               =        0.43
 2  CC1(C)CN(c2ccccc2NC(=O)Nc2nc3ccc(Cl)cc3s2)c2c(O)ccc(-c3nc4cc(F)ccc4s3)c21 [Example 172, TFA]               =        0.26
 3  CC1(C)CN(c2ccccc2NC(=O)Nc2nc3ccc(Cl)nc3s2)c2c(O)ccc(-c3nc4ccc(F)cc4s3)c21               =        0.35
 4  CC(C)Cn1cc(-c2c(F)cc(O)c3c2C(C)(C)CN3c2ccccc2NC(=O)Nc2ccc(OC(F)(F)F)cc2)cn1               =        0.26
 5  CC1(C)CN(c2ccccc2NC(=O)Nc2ccc(OC(F)(F)F)cc2)c2ccccc21 [Comparator 2, reference compound]               >          20
 6  CC1(C)CN(c2ccccc2NC(=O)Nc2nc3ccc(F)cc3s2)c2c(O)cc(F)c(-c3ccc(Cl)s3)c21               =        0.17
 7  CCC1(CC)CN(c2ccccc2NC(=O)Nc2ccc(C(C)(C)C)cc2)c2c1ccc(F)c2O               =        0.43
 8  CC1(C)CN(c2ccccc2NC(=O)Nc2nc3ccc(Cl)cc3s2)c2c(O)c(F)cc(Br)c21               =        0.75
 9  CC1(C)CN(c2ccccc2NC(=O)Nc2ccc(OC(F)(F)F)cc2)c2c(O)ccc(-c3ccc(C(F)(F)F)cc3)c21               =        0.23
10  CC1(C)CN(c2ccccc2NC(=O)Nc2ccc(OC(F)(F)F)cc2)c2c(O)cc(F)c(-c3noc(C(F)(F)F)n3)c21               =        0.64
11  CC1(C)CN(c2ccccc2NC(=O)Nc2ccc(OC(F)(F)F)cc2)c2c(O)ccc(-c3nc4cc(F)c(F)cc4o3)c21               =        0.89
12  CC(C)(C)c1ccc(-c2c(F)cc(O)c3c2C(C)(C)CN3c2ccccc2NC(=O)Nc2csc(Cl)n2)cc1               =        0.06
13  CC(C)(C)c1ccc(-c2c(F)cc(O)c3c2C(C)(C)CN3c2ccccc2NC(=O)Nc2csc(C(F)(F)F)n2)cc1               =         0.1
14  CC1(C)CN(c2ccccc2NC(=O)Nc2ccc(OC(F)(F)F)cc2)c2c(O)ccc(-c3ccc(C(F)(F)F)nc3)c21 [Example 120, TFA]               =        0.14
15  CC(C)n1nc(C(F)(F)F)cc1-c1c(F)cc(O)c2c1C(C)(C)CN2c1ccccc1NC(=O)Nc1nc2ccc(Cl)cc2s1               =        0.45
16  CC(C)n1nc(-c2c(F)cc(O)c3c2C(C)(C)CN3c2ccccc2NC(=O)Nc2nc3ccc(F)cc3s2)cc1C(F)(F)F               =        0.12
17  COc1ccc2nc(NC(=O)Nc3ccccc3N3CC(C)(C)c4c(-c5nc6ccc(F)cc6s5)c(F)cc(O)c43)sc2c1               =        0.49
18  CC1(C)CN(c2ccccc2NC(=O)Nc2nc3ccc(F)cc3s2)c2c(O)cc(F)c(-c3cc(C(F)(F)F)no3)c21               =        0.62
19  CC(C)n1nc(-c2c(F)cc(O)c3c2C(C)(C)CN3c2ccccc2NC(=O)Nc2ccc(OC(F)(F)F)cc2)cc1C(F)(F)F               =        0.07
20  CC1(C)CN(c2ccccc2NC(=O)Nc2csc(Cl)n2)c2c(O)ccc(-c3nc4cc(Cl)ccc4s3)c21               =        0.77
21  CCC1(CC)CN(c2ccccc2NC(=O)Nc2nc3ccc(Cl)cc3s2)c2c(O)cccc21               =        0.39
22  CC1(CC(F)(F)F)CN(c2ccccc2NC(=O)Nc2ccc(OC(F)(F)F)cc2)c2c(O)ccc(Cl)c21 (stereo not shown)               =        2.92
23  CCC1(CC)CN(c2ccccc2NC(=O)Nc2ccc(C3CCN(CC(C)C)CC3)cc2)c2c(O)ccc(F)c21               =        0.54
24  Cc1nc(NC(=O)Nc2ccccc2N2CC(C)(C)c3c(-c4ccc(F)cc4)ccc(O)c32)cs1               =        0.43
25  CCC1(CC)CN(c2ccccc2NC(=O)Nc2ccc(OC(F)(F)F)cc2)c2c(O)ccc(Cl)c21               =        0.41
26  Cc1cccc2oc(-c3ccc(O)c4c3C(C)(C)CN4c3ccccc3NC(=O)Nc3ccc(OC(F)(F)F)cc3)nc12               =        0.43
27  CC1(C)CN(c2ccccc2NC(=O)Nc2ccc(OC(F)(F)F)cc2)c2c(O)cc(F)c(-c3ccc(F)c(Cl)c3)c21               =        0.48
28  CC1(C)CN(c2ccccc2NC(=O)Nc2ccc(OC(F)(F)F)cc2)c2c(O)c(F)cc(-c3ccc(C(F)(F)F)cc3)c21               =        0.22
